Target: Delta-type opioid receptor (Rattus norvegicus, UniProt P33533)
Sequence (P33533 whole entry): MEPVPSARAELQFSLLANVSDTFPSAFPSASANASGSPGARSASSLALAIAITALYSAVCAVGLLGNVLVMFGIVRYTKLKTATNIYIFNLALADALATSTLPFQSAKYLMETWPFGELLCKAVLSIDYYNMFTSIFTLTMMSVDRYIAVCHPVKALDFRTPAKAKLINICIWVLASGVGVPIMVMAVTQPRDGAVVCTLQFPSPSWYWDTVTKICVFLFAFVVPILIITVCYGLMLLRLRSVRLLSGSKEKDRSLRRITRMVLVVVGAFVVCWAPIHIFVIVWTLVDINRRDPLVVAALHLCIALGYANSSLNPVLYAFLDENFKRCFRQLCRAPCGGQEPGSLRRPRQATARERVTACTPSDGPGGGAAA
Assay: Binding affinity evaluated by inhibition of binding of [3H]DADLE to delta opioid receptor of rat brain
Ki under 20 nM gets yes (1), anything at or over 20 nM gets no (0).

COMPOUND	TEST_TARGET	ASSIGNED_CLASS
O=C1/C(=C\c2ccc(-c3ccccc3)cc2)C[C@@]2(O)C3Cc4ccc(O)c5c4C2(CCN3CC2CC2)C1O5 (stereo not given in full)	Delta-type opioid receptor (Rattus norvegicus, UniProt P33533)	no (0)
O=C1/C(=C\c2ccc3ccccc3c2)C[C@@]2(O)C3Cc4ccc(O)c5c4C2(CCN3CC2CC2)C1O5 (stereo not given in full)	Delta-type opioid receptor (Rattus norvegicus, UniProt P33533)	yes (1)
O=C1/C(=C/c2ccc3ccccc3c2)C[C@@]2(O)C3Cc4ccc(O)c5c4C2(CCN3CC2CC2)C1O5 (stereo not given in full)	Delta-type opioid receptor (Rattus norvegicus, UniProt P33533)	no (0)
O=C1/C(=C/c2ccc(-c3ccccc3)cc2)C[C@@]2(O)C3Cc4ccc(O)c5c4C2(CCN3CC2CC2)C1O5 (stereo not given in full)	Delta-type opioid receptor (Rattus norvegicus, UniProt P33533)	no (0)
O=C1/C(=C/c2c3ccccc3cc3ccccc23)C[C@@]2(O)C3Cc4ccc(O)c5c4C2(CCN3CC2CC2)C1O5 (stereo not given in full)	Delta-type opioid receptor (Rattus norvegicus, UniProt P33533)	yes (1)
O=C1/C(=C\c2cccc3ccccc23)C[C@@]2(O)C3Cc4ccc(O)c5c4C2(CCN3CC2CC2)C1O5 (stereo not given in full)	Delta-type opioid receptor (Rattus norvegicus, UniProt P33533)	yes (1)
O=C1/C(=C\c2c3ccccc3cc3ccccc23)C[C@@]2(O)C3Cc4ccc(O)c5c4C2(CCN3CC2CC2)C1O5 (stereo not given in full)	Delta-type opioid receptor (Rattus norvegicus, UniProt P33533)	yes (1)
O=C1/C(=C/c2cccc3ccccc23)C[C@@]2(O)C3Cc4ccc(O)c5c4C2(CCN3CC2CC2)C1O5 (stereo not given in full)	Delta-type opioid receptor (Rattus norvegicus, UniProt P33533)	yes (1)
O=C1/C(=C/c2ccccc2)C[C@@]2(O)[C@H]3Cc4ccc(O)c5c4[C@@]2(CCN3CC2CC2)[C@H]1O5	Delta-type opioid receptor (Rattus norvegicus, UniProt P33533)	yes (1)

Proceed to the following item.
QUERY: In plain terms, does `O=C1/C(=C\c2ccccc2)C[C@@]2(O)[C@H]3Cc4ccc(O)c5c4[C@@]2(CCN3CC2CC2)[C@H]1O5` come in under 20 nM for Ki?
RESULT: yes (1)

====

Quick reference: Selectivity of the listed items.
Target: Opioid receptors; mu & delta (Rattus norvegicus) (UniProt P33533+P33535)
Sequence (P33535 whole entry, looked up, one chain of several): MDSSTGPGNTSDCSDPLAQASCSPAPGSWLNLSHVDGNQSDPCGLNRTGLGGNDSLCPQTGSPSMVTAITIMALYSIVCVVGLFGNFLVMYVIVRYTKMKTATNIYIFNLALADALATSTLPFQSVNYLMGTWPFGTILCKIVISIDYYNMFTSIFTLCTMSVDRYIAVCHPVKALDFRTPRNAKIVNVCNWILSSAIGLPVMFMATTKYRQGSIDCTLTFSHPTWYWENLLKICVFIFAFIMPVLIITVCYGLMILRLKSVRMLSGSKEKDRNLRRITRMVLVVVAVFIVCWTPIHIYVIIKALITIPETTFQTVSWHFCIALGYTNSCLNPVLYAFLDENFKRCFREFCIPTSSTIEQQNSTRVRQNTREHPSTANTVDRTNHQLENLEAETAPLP
Assay: Selectivity ratio against mu opioid receptor to that of delta opioid receptor
Format: protein assay

COMPOUND	RESULT
O=C1/C(=C/c2ccc(-c3ccccc3)cc2)C[C@@]2(O)C3Cc4ccc(O)c5c4C2(CCN3CC2CC2)C1O5 (some centres undefined)	0.6
O=C1/C(=C/c2cccc3ccccc23)C[C@@]2(O)C3Cc4ccc(O)c5c4C2(CCN3CC2CC2)C1O5 (some centres undefined)	7.5
O=C1/C(=C\c2ccccc2)C[C@@]2(O)[C@H]3Cc4ccc(O)c5c4[C@@]2(CCN3CC2CC2)[C@H]1O5	8.6

Let us move to another entry and its Selectivity.
QUERY: Dear colleague, please send me the reported Selectivity for O=C1/C(=C/c2c3ccccc3cc3ccccc23)C[C@@]2(O)C3Cc4ccc(O)c5c4C2(CCN3CC2CC2)C1O5 (some centres undefined) when you can.
RESULT: 6.4

====

Biological target: Opioid receptors; mu & delta (Rattus norvegicus) (UniProt P33533+P33535)
Experiment: Selectivity ratio against mu opioid receptor to that of delta opioid receptor
Type: protein assay
Quick reference: Selectivity of the listed items.
Hey, just send me the number, nothing else.

Field: example entries. Status: answers known.
COMPOUND	Selectivity
O=C1/C(=C\c2ccc(-c3ccccc3)cc2)C[C@@]2(O)C3Cc4ccc(O)c5c4C2(CCN3CC2CC2)C1O5 (stereo partly specified)	4.2
O=C1/C(=C\c2ccc3ccccc3c2)C[C@@]2(O)C3Cc4ccc(O)c5c4C2(CCN3CC2CC2)C1O5 (stereo partly specified)	3
O=C1/C(=C/c2ccccc2)C[C@@]2(O)[C@H]3Cc4ccc(O)c5c4[C@@]2(CCN3CC2CC2)[C@H]1O5 [BNTX]	4
O=C1/C(=C\c2c3ccccc3cc3ccccc23)C[C@@]2(O)C3Cc4ccc(O)c5c4C2(CCN3CC2CC2)C1O5 (stereo partly specified)	14
O=C1/C(=C\c2cccc3ccccc23)C[C@@]2(O)C3Cc4ccc(O)c5c4C2(CCN3CC2CC2)C1O5 (stereo partly specified)	15

Let us move to another entry and its Selectivity.
QUERY: Provide Opioid receptors; mu & delta (Rattus norvegicus) (UniProt P33533+P33535) Selectivity reading for O=C1/C(=C/c2ccc3ccccc3c2)C[C@@]2(O)C3Cc4ccc(O)c5c4C2(CCN3CC2CC2)C1O5 (stereo partly specified) .
RESULT: 0.6
